# Experimental Details: Permeability in CALU-3 cells
# Assay type: in vitro ADME
# Condition Details: human; basal-to-apical, CALU-3 monolayers, pH 7.4, 37° C., 10 μM compound
Observation Type: Papp B→A at 90 min, 10 μM (×10⁻⁶ cm/s)

Record Smiles	Assay Result
CCn1c(CNC(=O)c2nc(Cl)c(N)nc2N)[n+](CC(=O)N2CCNCC2)c2ccc(OC)cc21.Cl.[Cl-]	0.2
CCn1c(CNC(=O)c2nc(Cl)c(N)nc2N)[n+](CC(=O)NC2CCN(C(=O)OC(C)(C)C)CC2)c2ccc(OC)cc21.[Br-]	0.3
CCn1c(CNC(=O)c2nc(Cl)c(N)nc2N)[n+](CC(=O)N2CCOCC2)c2ccc(OC)cc21.[Br-]	0.2
CCn1c(CNC(=O)c2nc(Cl)c(N)nc2N)[n+](CC(=O)N2CCN(C(=O)OC(C)(C)C)CC2)c2ccc(OC)cc21.[Br-]	0.08
CC[n+]1c(CNC(=O)c2nc(Cl)c(N)nc2N)n(C2CCN(C(=O)NCCOC)CC2)c2ccccc21.O=C[O-]	0.2
CCn1c(CNC(=O)c2nc(Cl)c(N)nc2N)[n+](CC(=O)c2ccc(OC)c(OC)c2)c2ccc(OC)cc21.O=C([O-])C(F)(F)F	0.2
CC[n+]1c(CNC(=O)c2nc(Cl)c(N)nc2N)n(CCCc2ccc(OCP(C)(C)=O)cc2)c2cc(OC)ccc21.O=C([O-])C(F)(F)F	0.07
CCn1c(CNC(=O)c2nc(Cl)c(N)nc2N)[n+](CC(=O)N(C)CCOC)c2ccc(OC)cc21.[Br-]	0.2
CCn1c(CNC(=O)c2nc(Cl)c(N)nc2N)[n+](CC(=O)NCCN(C)C)c2ccc(OC)cc21.O=C(O)C(F)(F)F.O=C([O-])C(F)(F)F	0.03

// provenance: patent US9981954B2
